Conditions: in acetonitrile, 308.15 K
Entries annotated with measured solubility (mole fraction)
recordedEndpoint: solubility (mole fraction)

1. O=C(/C=C/c1cn(-c2ccccc2)nc1-c1cccc([N+](=O)[O-])c1)c1nc2ccccc2[nH]1: 0.000148
2. COc1ccc(-c2nn(-c3ccccc3)cc2/C=C/C(=O)c2nc3ccccc3[nH]2)cc1OC: 0.000152
3. O=C(/C=C/c1cn(-c2ccccc2)nc1-c1ccc(Cl)cc1)c1nc2ccccc2[nH]1: 0.000153
4. O=C(/C=C/c1cn(-c2ccccc2)nc1-c1ccccc1Cl)c1nc2ccccc2[nH]1: 0.000101
5. COc1ccc(-c2nn(-c3ccccc3)cc2/C=C/C(=O)c2nc3ccccc3[nH]2)cc1: 0.000227
6. O=C(/C=C/c1cn(-c2ccccc2)nc1-c1ccccc1)c1nc2ccccc2[nH]1: 7.61e-05
7. COc1cccc(-c2nn(-c3ccccc3)cc2/C=C/C(=O)c2nc3ccccc3[nH]2)c1: 5.87e-05
